system: MS2 coat protein; assay: apparent KD of MS2 coat protein; designed switch direction (-1 OFF switch, 1 ON switch): -1; higher = weaker reporter binding; details: input ligand: none
endpoint.name: apparent KD of MS2 coat protein

Name the reported apparent KD of MS2 coat protein value associated with the sequence UGUAGAGUGGUAGGAUAUCCGGCUGUUUCAGUCGGAGAAGGACCACAGUCACUGGGUCCUUAUAUGGGUGACCAUGUAUCUACU [pwkr exNG1 F6.7] (Eterna round: R96, puzzle: Exclusion NG 1)
395 nM

Could you tell me which apparent KD of MS2 coat protein is on file for GCACUGACAGGAUAUACAUGAGGAUCACCCAUGUGACCCUUAAAGUACUCGCGUACAAGUAGAAGGGUCUGUGC [Omei Ex3 Model Bachelor's Dilema v30] (Eterna round: R97, puzzle: Exclusion 3) ?
66.7 nM

Could you share which apparent KD of MS2 coat protein value was measured for GGUCAGAUGGUAGGAUAUCCAUAUUGAGUGACCCUUUCAUAACAUGAGGAUCACCCAUGUCGGUGGGAGAAGGGCCGUACGGCG [salish99_ExNG02_R04_015] (Eterna round: R96, puzzle: Exclusion NG 2) ?
114 nM

What value of apparent KD of MS2 coat protein has been reported for the following sequence? ACACUGCGAGGAUAUACAUGAGGAUCACCCAUGUUAAGGAAGUCAAGGUUAAUUUAAGGUAGAAGGCGCUUAUU [JR_Ex3_Sub013] (Eterna round: R97, puzzle: Exclusion 3)
39.7 nM

What value of measured apparent KD of MS2 coat protein is listed for AAAAAAAAGUGAGGAUAUGGAAAUUUGGUGAUAACAUGAGGAUCACCCAUGUGAAAACAAUAAAAUUAGAAGGUAUAAAAAAAA [AK ExNG2-1] (Eterna round: R96, puzzle: Exclusion NG 2) ?
98.8 nM

Which apparent KD of MS2 coat protein value belongs to CCAUCUCUAGUAGGAUAUGUCGGAUAUGUUGUUGAGGUUCACCCAACGACGUCAAUGACAGAAGGACAGAAGGACUCUCGAUGC [pwkr exNG2 2xFMN 1xF5.6] (Eterna round: R96, puzzle: Exclusion NG 2) ?
183 nM

I am curious: what apparent KD of MS2 coat protein value has been reported for UUUUGCACGCUGCGGUCCUACAUGAGGAUCACCCAUGUGGUCUGGUGGCGUGGGUCGCCGGACUUGGCUCGUCUUGA [salish99_S_TOV1_R5_037] (Eterna round: R97, puzzle: Sensor, turn-off variant 1) ?
18.2 nM

Find the recorded apparent KD of MS2 coat protein belonging to CUAGCGAUUGUAGGAUAUCGAUGUGUUUCACAUCGAGAAGGACAUGAGGAUCACCCAUGUGAAGGAUCGUGAGAUCCACGCUAG [JL ENG1 3.78] (Eterna round: R96, puzzle: Exclusion NG 1) and report it.
19.7 nM

Entry under review: CAAACAAAGUCAGGAUAUGUCAAAUUUGUUACGACAGAAGGGACGGGACCGACACUCACAGACAUGAGGAUCACCCAUGUAAAA [Areris] (Eterna round: R96, puzzle: Exclusion NG 1) . Reported apparent KD of MS2 coat protein?
33.5 nM

###

test system: MS2 coat protein; experiment: apparent KD of MS2 coat protein, switch OFF state (with FMN for OFF switches, without FMN for ON switches); designed switch direction (-1 OFF switch, 1 ON switch): -1; higher = weaker reporter binding; settings: FMN input: 0 or 200 uM; Eterna round: R93 (includes R88 designs)
Assign apparent KD of MS2 coat protein to each entry below.
Answer format: numeric, nM implied, no suffix.

// lookup apparent KD of MS2 coat protein for AAAAAGGCAGGAUAUACAUGAGGAUCACCCAUGUUUUAAAAAAAAAAAAAAAAAAAAAGUAGAAGGGCCAAAAA [Ex 3.1]
39.7

Give its apparent KD of MS2 coat protein value. Item: AAAAAGUCAGGAUAUAUGCGAAAAAUAAAAAAAAUAAAAACAUAGAAGGGACAUGAGGAUCACCCAUGUUAAAA [Ex 4 May 17]
29.3

Request the reported apparent KD of MS2 coat protein associated with GAAGAACAUGAGGAUCACCCAUGUCAGGAUAUGCGGAAGGGAAUAAUAACUUCCGGAAGCAGAAGGGACAAGAA [Ex 1 May 49]
60

apparent KD of MS2 coat protein for AGAAAACGAGGAUAUGCAAGGGAAGAAAGAAGAGAGAAAAAACAUGAGGAUCACCCAUGUAGAAGGUGUAAAAA [JR_Exc002_Sub1714] ?
37.1

apparent KD of MS2 coat protein lookup needed for AAAAAGUGAGGAUAUUCGGAUAGGAAAACGAAAACCUAUCCGAAGAAGGCACAUGAGGAUCACCCAUGUGGAAA [67% Ecls-II - Early G + late G segment 2] , thanks.
27.6

Name the reported apparent KD of MS2 coat protein value associated with the sequence AAAAACUCAGGAUAUACAUGAGGAUCACCCAUGUAAAAAAAAAAAAAGGGAAAAAAAAGUAGAAGGGAGAAAAA [Semenre]
37.2

What value of measured apparent KD of MS2 coat protein is listed for AAGAAGUGAGGAUAUCGAAGACAGACGAAAAGUCUGUCAAACGAGAAGGCACAUGAGGAUCACCCAUGUAAGAA [What have we learned so far?] ?
43.7

Fill blank: measured apparent KD of MS2 coat protein of the sequence AAAAAACAUGAGGAUCACCCAUGUCAGGAUAUCCGGUUCUUGAAAAUCAAGAGGCGUUGGAGAAGGGACAUUCC [Chica Displaced 14 - Jieux - Exclusion 1] is ____.
74.4

Which apparent KD of MS2 coat protein is listed for AAAAAGGUAGGAUAUACGAGGAGAAAUAAUAAAUAAAUAAAACAUGAGGAUCACCCAUGUAGAAGGACCAAAAA [Ex 2 sub 2] ?
26.9

Recorded apparent KD of MS2 coat protein of UUAGAACAUGAGGAUCACCCAUGUGAGGAUAUGCAAUACUAGCGACAAGAUCAUUAUAGCAGAAGGCACGUAGU [JR_EXc001_Sub806] , please.
40

Recorded apparent KD of MS2 coat protein of UAGAACCUAGGAUAUACUUGGGUCACUAAUUUACUGAUAUAACAUGAGGAUCACCCAUGUAGAAGGAGGAGUAA [JR_Exc002_Sub203] , please.
26.7

// returns reported apparent KD of MS2 coat protein for input AACUGACAUGAGGAUCACCCAUGUCAGGAUAUGAUAUGUAAAAAAAAAAAAAUACUUAUCAGAAGGGACAUGGA [Design 42: Sub-opt BB]
30

Requested field: apparent KD of MS2 coat protein. Item: AAAAAGGUAGGAUAUACAUGAGGAUCACCCAUGUAAAAAAAAACAAGAGAAAAAAAAUGUAGAAGGGCCAAAAA [Ex3 Malc#4]
16.9

apparent KD of MS2 coat protein for AACAGUACAGGAUAUACAUGAGGAUCACCCAUGUCACAACAAAGCAGCGCAACACAAAGUAGAAGGGUAAUGGA [Ruby 15] ?
40.4

Return reported apparent KD of MS2 coat protein; argument: AAAAAAGCAGGAUAUACGUACAUGUCAAAAGACGUGAAGGGACAUGAGGAUCACCCAUGUAGAAGGGUUAAGAA [JL Stem Breaker 17]
49.4

Need apparent KD of MS2 coat protein, item GGUUGGCGAGGAUAUACAUGAGGAUCACCCAUGUGAGCGAAAAAAGUGAGAAAGAAAAGUAGAAGGCGCUGACG [salish99-ex3-50]
60.5

# apparent KD of MS2 coat protein lookup, item UUUUGACAUGAGGAUCACCCAUGUCAGGAUAUAGUAGGACAAAAAAAAAAAAGUUCUACUAGAAGGGAUAUGAA [Design 16: Not So Super Stable 2]
26.7

Any idea what its apparent KD of MS2 coat protein is? The sequence is AAGAACUCAGGAUAUACAUGAGGAUCACCCAUGUAAAAGAAAGAAGGGAAAGAGAAAAGUAGAAGGGAGAAGAA [Niumateped]
23.8

Could you share which apparent KD of MS2 coat protein value was measured for GAUAAACAUGAGGAUCACCCAUGUAAGGAUAUGCGCUAACUAACUAACUAACUAACUAGCAGAAGGUACACUAC [The End] ?
26.5

Endpoint output: apparent KD of MS2 coat protein of AAGACUACAGGAUAUACAUGAGGAUCACCCAUGUAACUGACAAGCAGAGUACGGAGAAGUAGAAGGGUAGUCAA [Ruby 33] . Value?
30.1

What does the data say about its apparent KD of MS2 coat protein? Entry: GAAAAAGGAGGAUAUACGUACAUGUCAAAAGACGUGAAGGGACAUGAGGAUCACCCAUGUAGAAGGCUUAAAAG [Mat - Exclusion 2 - JL mod - D95]
21.4

Which apparent KD of MS2 coat protein is reported for this sequence? AGUCAUACAGGAUAUACAUGAGGAUCACCCAUGUAUAUCCAAAAAAAAAAAAACUCAUGUAGAAGGGUAUGACA [EX3 206: Super Stable 6]
12.4

Recorded apparent KD of MS2 coat protein of GCGCACUAAGGAUAUACAUGAGGAUCACCCAUGUGGGUUUUGAAACAGAUUAAAUAGUGUAGAAGGUAGAAAAC [Lees] , please.
95.8

Which measured apparent KD of MS2 coat protein value corresponds to CUCAAGUUAGGAUAUCGAAGAAAAGAAGAGAAAGAAAAGAACGAGAAGGAACAUGAGGAUCACCCAUGUAAGAA [EteRNA is fun!] ?
21.7

Reported apparent KD of MS2 coat protein for AGCUAGGUAGGAUAUACGUAAAUGUCGAAAGACGUAUUGGGACAUGAGGAUCACCCAUGUAGAAGGAUCUAGCA [it's a mod mod mod world 3] : what is it?
178

What apparent KD of MS2 coat protein value was documented for this sequence, CAGUGACAUGAGGAUCACCCAUGUUAGGAUAUGCGUGUUAGAAAAAAAAAGUUAAUAAGCAGAAGGAACAGUGG [JR_Exc001_Sub311] ?
61.6
